Molecular target: FGFR1 (Homo sapiens)
Sequence (P11362 22-822, species assumed): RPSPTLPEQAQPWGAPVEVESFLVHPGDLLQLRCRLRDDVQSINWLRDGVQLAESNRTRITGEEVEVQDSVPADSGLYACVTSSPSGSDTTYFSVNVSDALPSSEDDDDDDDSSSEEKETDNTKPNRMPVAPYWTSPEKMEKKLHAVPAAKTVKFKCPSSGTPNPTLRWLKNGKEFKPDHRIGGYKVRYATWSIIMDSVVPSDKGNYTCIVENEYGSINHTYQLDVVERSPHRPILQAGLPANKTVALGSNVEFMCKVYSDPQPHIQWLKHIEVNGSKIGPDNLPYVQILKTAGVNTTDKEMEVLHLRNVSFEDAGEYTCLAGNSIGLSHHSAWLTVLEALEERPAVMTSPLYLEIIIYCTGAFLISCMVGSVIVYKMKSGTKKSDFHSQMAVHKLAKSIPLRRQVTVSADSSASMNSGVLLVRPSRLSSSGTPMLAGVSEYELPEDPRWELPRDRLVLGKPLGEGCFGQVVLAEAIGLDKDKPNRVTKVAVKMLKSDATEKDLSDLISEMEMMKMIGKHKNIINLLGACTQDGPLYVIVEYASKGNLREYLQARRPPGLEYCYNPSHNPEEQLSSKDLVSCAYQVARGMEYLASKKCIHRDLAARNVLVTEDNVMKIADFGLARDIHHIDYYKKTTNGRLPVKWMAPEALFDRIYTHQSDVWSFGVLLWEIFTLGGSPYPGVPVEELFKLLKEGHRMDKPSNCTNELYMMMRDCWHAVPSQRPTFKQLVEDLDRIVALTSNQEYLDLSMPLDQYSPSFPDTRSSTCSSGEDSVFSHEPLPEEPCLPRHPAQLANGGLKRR
assayEndpoint: IC50

[[record]]
smilesentry = "C[C@H]1CN(C(=O)CC#N)[C@]12CCN(c1ncnc3[nH]ccc13)C2"
assayendpoint = "IC50"
testresult = "> 1000 nM"


* * *

Target: ZAP-70 (Homo sapiens, UniProt P43403)
pIC50: −log10 of the molar value.
assayEndpoint: pIC50

[[record]]
smilesentry = "C[C@H]1CN(C(=O)CC#N)[C@]12CCN(c1ncnc3[nH]ccc13)C2"
assayendpoint = "pIC50"
testresult = "< 6.00"


* * *

Molecular target: UniProt P06213
Sequence (P06213 28-1382): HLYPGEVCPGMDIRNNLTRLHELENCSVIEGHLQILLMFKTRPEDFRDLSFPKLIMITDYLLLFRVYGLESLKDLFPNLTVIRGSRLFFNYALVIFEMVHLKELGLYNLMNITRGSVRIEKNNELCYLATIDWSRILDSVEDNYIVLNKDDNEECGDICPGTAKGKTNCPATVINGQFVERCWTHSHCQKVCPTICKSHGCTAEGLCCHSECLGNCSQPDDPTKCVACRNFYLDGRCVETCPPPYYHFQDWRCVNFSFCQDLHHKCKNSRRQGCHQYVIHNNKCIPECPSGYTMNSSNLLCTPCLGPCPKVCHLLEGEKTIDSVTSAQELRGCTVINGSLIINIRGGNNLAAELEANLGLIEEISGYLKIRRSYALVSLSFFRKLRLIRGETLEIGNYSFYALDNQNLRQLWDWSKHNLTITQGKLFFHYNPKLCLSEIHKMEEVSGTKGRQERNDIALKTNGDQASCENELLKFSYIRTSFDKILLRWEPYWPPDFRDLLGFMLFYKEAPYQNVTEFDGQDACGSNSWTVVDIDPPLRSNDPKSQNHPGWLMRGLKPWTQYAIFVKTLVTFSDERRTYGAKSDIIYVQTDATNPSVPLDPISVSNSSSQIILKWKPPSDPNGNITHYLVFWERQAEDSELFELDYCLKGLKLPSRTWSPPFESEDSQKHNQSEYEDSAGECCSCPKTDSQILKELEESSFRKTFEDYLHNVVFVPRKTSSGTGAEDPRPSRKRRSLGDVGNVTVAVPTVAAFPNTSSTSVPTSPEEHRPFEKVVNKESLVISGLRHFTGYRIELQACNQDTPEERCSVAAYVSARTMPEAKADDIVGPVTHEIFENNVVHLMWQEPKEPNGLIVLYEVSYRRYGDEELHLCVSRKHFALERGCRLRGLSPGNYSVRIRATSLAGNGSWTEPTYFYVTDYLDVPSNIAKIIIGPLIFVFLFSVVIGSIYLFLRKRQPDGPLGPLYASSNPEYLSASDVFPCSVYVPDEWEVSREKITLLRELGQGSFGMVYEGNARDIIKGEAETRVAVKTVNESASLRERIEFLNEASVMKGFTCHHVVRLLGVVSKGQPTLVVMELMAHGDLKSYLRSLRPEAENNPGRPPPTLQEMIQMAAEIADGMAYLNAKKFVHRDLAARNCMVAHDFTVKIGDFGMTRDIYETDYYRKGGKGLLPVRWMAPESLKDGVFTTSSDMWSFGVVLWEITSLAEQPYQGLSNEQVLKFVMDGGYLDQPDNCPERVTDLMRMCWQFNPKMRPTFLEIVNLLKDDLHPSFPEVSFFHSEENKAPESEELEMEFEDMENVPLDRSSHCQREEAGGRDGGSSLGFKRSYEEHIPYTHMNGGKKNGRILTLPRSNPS
pIC50: −log10 of the molar value.
assayEndpoint: pIC50

[[record]]
smilesentry = "C[C@H]1CN(C(=O)CC#N)[C@]12CCN(c1ncnc3[nH]ccc13)C2"
systemundertest = "UniProt P06213"
testresult = "< 6.00"


* * *

Target: PKCβI (Homo sapiens)
Sequence (P05771 whole entry): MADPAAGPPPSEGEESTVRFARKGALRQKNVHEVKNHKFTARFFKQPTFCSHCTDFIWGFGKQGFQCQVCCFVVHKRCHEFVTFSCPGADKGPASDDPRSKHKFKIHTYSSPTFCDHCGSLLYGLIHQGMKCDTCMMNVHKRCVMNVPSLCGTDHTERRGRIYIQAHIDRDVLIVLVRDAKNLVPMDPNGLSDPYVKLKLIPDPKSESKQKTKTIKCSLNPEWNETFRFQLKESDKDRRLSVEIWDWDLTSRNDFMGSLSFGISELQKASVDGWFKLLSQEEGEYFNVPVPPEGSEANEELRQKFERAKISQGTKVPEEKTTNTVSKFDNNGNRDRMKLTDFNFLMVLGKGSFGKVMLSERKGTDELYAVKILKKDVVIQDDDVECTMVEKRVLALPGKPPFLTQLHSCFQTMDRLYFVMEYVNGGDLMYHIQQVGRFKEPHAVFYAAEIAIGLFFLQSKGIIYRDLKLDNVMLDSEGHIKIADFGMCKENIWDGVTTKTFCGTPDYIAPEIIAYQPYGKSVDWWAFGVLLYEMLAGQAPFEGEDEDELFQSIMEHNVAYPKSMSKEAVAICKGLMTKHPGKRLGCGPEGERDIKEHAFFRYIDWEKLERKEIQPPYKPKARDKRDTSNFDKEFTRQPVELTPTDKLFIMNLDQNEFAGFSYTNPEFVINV
assayEndpoint: IC50

[[record]]
smilesentry = "C[C@H]1CN(C(=O)CC#N)[C@]12CCN(c1ncnc3[nH]ccc13)C2"
assayendpoint = "IC50"
testresult = "> 1000 nM"


* * *

Biological target: JNK1α1 (Homo sapiens)
Sequence (P45983 1-384 isoform P45983-2, species assumed): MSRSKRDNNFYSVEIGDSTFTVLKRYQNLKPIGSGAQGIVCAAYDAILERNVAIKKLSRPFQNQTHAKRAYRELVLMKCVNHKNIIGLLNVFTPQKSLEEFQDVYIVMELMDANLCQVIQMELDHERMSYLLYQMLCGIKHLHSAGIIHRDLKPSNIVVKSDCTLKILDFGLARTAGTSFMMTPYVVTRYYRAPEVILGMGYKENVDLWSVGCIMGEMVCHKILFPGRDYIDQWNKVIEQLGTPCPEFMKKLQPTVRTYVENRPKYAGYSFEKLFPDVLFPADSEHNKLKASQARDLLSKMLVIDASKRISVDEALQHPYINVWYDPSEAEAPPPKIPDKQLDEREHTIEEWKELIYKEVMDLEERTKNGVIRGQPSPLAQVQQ
pIC50: −log10 of the molar value.
assayEndpoint: pIC50

[[record]]
compound = "C[C@H]1CN(C(=O)CC#N)[C@]12CCN(c1ncnc3[nH]ccc13)C2 [JTE-052]"
testresult = "< 6.00"


* * *

Molecular target: FGFR3 (Homo sapiens)
pIC50: −log10 of the molar value.
assayEndpoint: pIC50

[[record]]
smilesentry = "C[C@H]1CN(C(=O)CC#N)[C@]12CCN(c1ncnc3[nH]ccc13)C2"
systemundertest = "FGFR3 (Homo sapiens)"
assayendpoint = "pIC50"
testresult = "< 6.00"


* * *

System: human monocytes
Experiment: GM-CSF-induced TNF-α production from monocytes (ELISA)
Details: Monocyte, read-out: IC50, GM-CSF enhancement of TNF-α production upon LPS stimulation in monocytes
assayEndpoint: IC50 (nM)

[[record]]
smilesentry = "C[C@H]1CN(C(=O)CC#N)[C@]12CCN(c1ncnc3[nH]ccc13)C2"
assayendpoint = "IC50"
unitinfo = "nM"
testresult = 277


* * *

Molecular target: PDGFRα (Homo sapiens)
pIC50: −log10 of the molar value.
assayEndpoint: pIC50

[[record]]
smilesentry = "C[C@H]1CN(C(=O)CC#N)[C@]12CCN(c1ncnc3[nH]ccc13)C2"
testresult = "< 6.00"


* * *

Experiment: Cytotoxicity: fibroblast (NHLF) proliferation ([3H]thymidine)
Conditions: human, normal human lung fibroblasts (NHLF)
assayEndpoint: IC50 at 3 days

[[record]]
smilesentry = "C[C@H]1CN(C(=O)CC#N)[C@]12CCN(c1ncnc3[nH]ccc13)C2"
testresult = "> 10 µM"


* * *

Target: UniProtKB P41240
Sequence (P41240 whole entry, species assumed): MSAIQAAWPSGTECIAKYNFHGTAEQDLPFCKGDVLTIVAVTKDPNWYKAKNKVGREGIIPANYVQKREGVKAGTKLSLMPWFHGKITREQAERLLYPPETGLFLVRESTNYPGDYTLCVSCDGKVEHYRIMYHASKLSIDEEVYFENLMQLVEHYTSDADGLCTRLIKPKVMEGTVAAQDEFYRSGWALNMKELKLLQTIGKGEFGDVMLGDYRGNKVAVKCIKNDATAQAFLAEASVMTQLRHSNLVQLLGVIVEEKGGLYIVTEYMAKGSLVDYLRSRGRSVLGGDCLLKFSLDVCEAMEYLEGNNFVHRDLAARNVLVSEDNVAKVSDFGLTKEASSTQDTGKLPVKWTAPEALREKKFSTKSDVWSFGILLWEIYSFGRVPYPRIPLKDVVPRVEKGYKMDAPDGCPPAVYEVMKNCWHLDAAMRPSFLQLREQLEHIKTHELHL
pIC50: −log10 of the molar value.
assayEndpoint: pIC50

[[record]]
smilesentry = "C[C@H]1CN(C(=O)CC#N)[C@]12CCN(c1ncnc3[nH]ccc13)C2"
testresult = "< 6.00"


* * *

Molecular target: IGF-1R (Homo sapiens, UniProt P08069)
Sequence (P08069 31-1367, species assumed): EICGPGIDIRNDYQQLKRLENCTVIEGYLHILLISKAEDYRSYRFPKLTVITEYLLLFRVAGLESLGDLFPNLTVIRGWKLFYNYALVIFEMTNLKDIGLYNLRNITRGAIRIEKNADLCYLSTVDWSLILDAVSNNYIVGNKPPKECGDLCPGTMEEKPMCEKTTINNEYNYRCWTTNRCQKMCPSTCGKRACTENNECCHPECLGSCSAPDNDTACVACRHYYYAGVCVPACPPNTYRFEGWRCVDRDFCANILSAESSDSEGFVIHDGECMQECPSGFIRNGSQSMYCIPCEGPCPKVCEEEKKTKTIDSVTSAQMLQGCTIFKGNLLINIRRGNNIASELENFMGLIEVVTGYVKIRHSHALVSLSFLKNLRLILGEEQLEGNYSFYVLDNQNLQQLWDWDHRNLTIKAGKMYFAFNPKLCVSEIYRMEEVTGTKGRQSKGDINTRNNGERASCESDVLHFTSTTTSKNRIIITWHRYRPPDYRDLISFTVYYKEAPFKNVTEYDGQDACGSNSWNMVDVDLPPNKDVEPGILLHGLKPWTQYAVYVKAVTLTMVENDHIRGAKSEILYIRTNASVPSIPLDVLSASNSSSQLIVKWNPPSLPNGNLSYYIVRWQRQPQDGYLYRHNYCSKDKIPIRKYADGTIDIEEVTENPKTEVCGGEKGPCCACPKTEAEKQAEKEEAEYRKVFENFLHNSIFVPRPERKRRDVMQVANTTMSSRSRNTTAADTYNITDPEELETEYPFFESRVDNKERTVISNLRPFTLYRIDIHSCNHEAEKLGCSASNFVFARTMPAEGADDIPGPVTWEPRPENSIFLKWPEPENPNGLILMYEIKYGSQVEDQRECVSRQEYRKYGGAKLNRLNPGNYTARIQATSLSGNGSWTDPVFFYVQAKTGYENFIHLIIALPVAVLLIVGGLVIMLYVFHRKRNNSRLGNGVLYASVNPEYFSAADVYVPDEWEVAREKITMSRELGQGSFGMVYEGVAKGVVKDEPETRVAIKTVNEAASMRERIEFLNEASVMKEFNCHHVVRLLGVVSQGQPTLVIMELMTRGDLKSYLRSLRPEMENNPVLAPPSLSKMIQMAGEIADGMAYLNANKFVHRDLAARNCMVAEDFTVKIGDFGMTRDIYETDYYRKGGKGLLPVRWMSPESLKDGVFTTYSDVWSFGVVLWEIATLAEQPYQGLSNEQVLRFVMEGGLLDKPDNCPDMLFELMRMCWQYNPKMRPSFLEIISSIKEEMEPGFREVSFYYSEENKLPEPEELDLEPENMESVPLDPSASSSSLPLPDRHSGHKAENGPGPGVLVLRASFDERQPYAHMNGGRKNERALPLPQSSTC
assayEndpoint: IC50

[[record]]
smilesentry = "C[C@H]1CN(C(=O)CC#N)[C@]12CCN(c1ncnc3[nH]ccc13)C2"
systemundertest = "IGF-1R (Homo sapiens, UniProt P08069)"
assayendpoint = "IC50"
testresult = "> 1000 nM"


* * *

Biological target: CDK1/cyclinB (Homo sapiens)
Experiment: KinaseProfiler selectivity: CDK1/cyclinB
pIC50: −log10 of the molar value.
assayEndpoint: pIC50

[[record]]
compound = "C[C@H]1CN(C(=O)CC#N)[C@]12CCN(c1ncnc3[nH]ccc13)C2 [JTE-052]"
testresult = "< 6.00"


Values from paper PMC4286029
